subject of test: T1, Human complement C4 protein (Millipore Sigma, Cat. 204886) (human, UniProt P0C0L4 20-675; P0C0L4 680-1446; P0C0L4 1454-1744, limits assumed, natural sulfotyrosines)
T1 construct: mature
protocol: ELISA, 50 nM mAb
measure: binding normalized to PSGL-1
Answer with a number only.

Returns the measured binding normalized to PSGL-1 for the input binder. Input: 06B02 (antibody, IgG4, V domains shown) VH: QVQLVESGPGLVKPSETLSLTCTVSGVSVSSYYWTWVRQSPGKGLEWIGHVHHSGISNYNPSLKSRVVMSVDTSKNYFSLKLRSVTAADTAVYYCARGGPRISPTNWGQGTLVTVSS VL: QPVLTQPPSVSKALRQTATLTCTGNSNNVGYQGATWLRQHQGHPPRLLSYRNNNRPSGISERFSASRSGNTATLTITGLQPDDEADYYCAAWDSSLSAWVFGGGTKLTVL 1.09

// repeat for 05H03 (antibody, IgG4, V domains shown) VH: QVQLQQSGGGLVQPGGSLTLSCVGSGFDFRSYAMSWVRQAPGKGLEWVSGINNSGSKTYYADFVKGRFSVSRDNSKNIVWLRMRSLRAEDTAVYYCARRTFGPPHAWGQGTMVTVSS VL: DIVMTQSPLSLSVTPGEPASISCRSSQSLLHSNGYKYLDWYLQKPGQSPQLLIYMGSNRASGVPDRFSGSGSGTDFTLKISRVEAEDVGVYYCMQGLQSPLTFGGGTKVEIE and report 0.58
